Consider the following compounds and their measured IC50 readings.
assayed.system: PERK (Homo sapiens (Human), UniProt Q9NZJ5)
Sequence (Q9NZJ5 30-1116): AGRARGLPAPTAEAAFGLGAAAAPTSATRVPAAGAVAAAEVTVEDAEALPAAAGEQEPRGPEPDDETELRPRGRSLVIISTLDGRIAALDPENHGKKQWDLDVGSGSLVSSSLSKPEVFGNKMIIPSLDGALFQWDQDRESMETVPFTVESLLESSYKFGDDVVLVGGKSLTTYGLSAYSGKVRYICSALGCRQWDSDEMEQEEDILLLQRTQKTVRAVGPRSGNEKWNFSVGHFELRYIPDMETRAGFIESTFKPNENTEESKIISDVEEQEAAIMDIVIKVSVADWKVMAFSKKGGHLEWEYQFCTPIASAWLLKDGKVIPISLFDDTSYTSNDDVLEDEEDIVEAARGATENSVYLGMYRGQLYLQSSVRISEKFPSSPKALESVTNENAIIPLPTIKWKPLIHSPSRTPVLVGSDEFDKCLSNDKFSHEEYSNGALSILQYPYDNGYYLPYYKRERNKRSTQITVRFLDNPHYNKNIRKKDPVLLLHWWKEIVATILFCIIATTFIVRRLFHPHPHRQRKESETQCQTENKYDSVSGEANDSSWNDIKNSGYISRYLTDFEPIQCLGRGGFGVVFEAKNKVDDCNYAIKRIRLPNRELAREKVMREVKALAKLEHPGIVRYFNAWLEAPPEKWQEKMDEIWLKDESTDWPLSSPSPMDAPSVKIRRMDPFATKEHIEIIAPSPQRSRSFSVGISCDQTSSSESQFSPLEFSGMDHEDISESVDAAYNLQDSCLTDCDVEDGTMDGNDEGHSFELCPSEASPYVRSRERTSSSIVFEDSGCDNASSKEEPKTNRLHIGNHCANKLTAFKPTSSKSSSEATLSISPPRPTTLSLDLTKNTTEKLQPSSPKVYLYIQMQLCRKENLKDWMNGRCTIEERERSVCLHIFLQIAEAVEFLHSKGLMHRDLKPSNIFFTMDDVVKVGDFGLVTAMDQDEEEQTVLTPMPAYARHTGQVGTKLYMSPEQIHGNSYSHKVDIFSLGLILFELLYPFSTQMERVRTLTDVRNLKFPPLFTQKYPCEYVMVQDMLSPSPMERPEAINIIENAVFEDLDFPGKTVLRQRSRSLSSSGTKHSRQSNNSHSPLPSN
protocol: PERK cellular assay (TR-FRET, HEK293-EGFP-eIF2α cells, tunicamycin-induced ER stress)
Format: cell-based
condition: tunicamycin 2 hours, read-out: Cellular IC50 (μM) (EIF2a)
Experimental: Stable cell lines were created in HEK293 cells using lentiviral particles harboring an expression vector for GFP-eIF2α. Cells were selected using puromycin and enriched using fluorescence activated cell sorting against GFP. […] Cells were lysed and TR-FRET was measured in an EnVision plate reader (PerkinElmer). […] IC50 values were calculated using 4-parameter logistical fitting in XLFit.

Reference set, count: 5
CCc1cccc(C(O)C(=O)Nc2ccc(-c3cnc(N)c(C(=O)NC(C)C)c3)c(C)c2)c1 (single isomer, unassigned) [Example 72]: 0.001 to 0.025 µM
COC1CC(NC(=O)c2cc(-c3ccc(NC(=O)C(O)c4cc(F)cc(F)c4)cc3C)cnc2N)C1 (stereo not shown) [Example 29]: 0.251 to 0.5 µM
Cc1cc(NC(=O)CC2CC2)ccc1-c1cnc(N)c(C(=O)NC(C)C)c1: > 5 µM
Cc1cc(NC(=O)CC2CCCC2)ccc1-c1cnc(N)c(C(=O)NC(C)C)c1: > 5 µM
Cc1cc(NC(=O)C(O)c2cc(F)cc(F)c2)ccc1-c1cnc(C)c(C(=O)NC(C)C)c1 (stereo not shown) [Example 177]: 0.251 to 0.5 µM

Kindly note: PERK (Homo sapiens (Human), UniProt Q9NZJ5), Cc1cc(NC(=O)C(C)(O)c2ccccc2)ccc1-c1cnc(N)c(C(=O)NC(C)C)c1 (stereo not shown) [Example 3] , IC50 value reported: 2 to 3 µM
